system: TOV-112D (Ovarian Carcinoma); test: Bliss excess, mean over the matrix (fraction); higher = more synergy;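 also: after 72 h of two-drug dosing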
Please enter TRUE where Bliss excess is greater than or equal to 0.03, and FALSE where it is lower.

Some solved cases for reference:
• Cc1nc(Nc2ncc(C(=O)Nc3c(C)cccc3Cl)s2)cc(N2CCN(CCO)CC2)n1 [Dasatinib] + CC(=O)Nc1cccc(-n2c(=O)n(C3CC3)c(=O)c3c(Nc4ccc(I)cc4F)n(C)c(=O)c(C)c32)c1 [Trametinib] (first compound max 2 µM, 7x7, partner max 1 µM) = TRUE
• CC1(C)CCC(CN2CCN(c3ccc(C(=O)NS(=O)(=O)c4ccc(NCC5CCOCC5)c([N+](=O)[O-])c4)c(Oc4cnc5[nH]ccc5c4)c3)CC2)=C(c2ccc(Cl)cc2)C1 [Venetoclax] + C[C@@H]1COCCN1C2=NC(=NC(=C2)C3(CC3)[S@](=N)(=O)C)C4=C5C=CNC5=NC=C4 [AZD6738] (first compound max 1 µM, 7x7, partner max 10 µM) = FALSE
• CN(CCO)CC[C@H](CSc1ccccc1)Nc1ccc(S(=O)(=O)NC(=O)c2ccc(N3CCC([C@@H](O)c4ccccc4-c4ccc(Cl)cc4)CC3)cc2)cc1S(=O)(=O)C(F)(F)F [AZD4320] + Cc1cc2ncnn2cc1Nc1ncc2c(n1)n(C1CCOCC1)c(=O)n2C [AZD7648] (first compound max 1 µM, 7x7, partner max 10 µM) = FALSE
• CN(CCO)CC[C@H](CSc1ccccc1)Nc1ccc(S(=O)(=O)NC(=O)c2ccc(N3CCC([C@@H](O)c4ccccc4-c4ccc(Cl)cc4)CC3)cc2)cc1S(=O)(=O)C(F)(F)F [AZD4320] + Cn1cnc2c(F)c(Nc3ccc(Br)cc3Cl)c(C(=O)NOCCO)cc21 [Selumetinib] (first compound max 1 µM, 7x7, partner max 3 µM) = FALSE

Input line: Check if Bliss excess >= 0.03 (inclusive). Item: C=CCn1c(=O)c2cnc(Nc3ccc(N4CCN(C)CC4)cc3)nc2n1-c1cccc(C(C)(C)O)n1 [AZD1775] + C1CN(CCC1(C(=O)N[C@@H](CCO)C2=CC=C(C=C2)Cl)N)C3=NC=NC4=C3C=CN4 [Capivasertib] (first compound max 3 µM, partner max 3 µM)
Output line: FALSE

Input line: Check if Bliss excess >= 0.03 (inclusive). Item: CN(CCO)CC[C@H](CSc1ccccc1)Nc1ccc(S(=O)(=O)NC(=O)c2ccc(N3CCC([C@@H](O)c4ccccc4-c4ccc(Cl)cc4)CC3)cc2)cc1S(=O)(=O)C(F)(F)F [AZD4320] + C=CCn1c(=O)c2cnc(Nc3ccc(N4CCN(C)CC4)cc3)nc2n1-c1cccc(C(C)(C)O)n1 [AZD1775] (first compound max 1 µM, partner max 1 µM)
Output line: FALSE
